pIC50: −log10 of the molar value.
Compiled record: pIC50 values for Serine/threonine-protein kinase B-raf (Homo sapiens, UniProt P15056) across several sources.

Use these answered entries as a reference point.
[[record]]
entry_smiles = "CCCS(=O)(=O)Nc1ccc(F)c(C(=O)c2c[nH]c3ncc(-c4ccc(N(C)C)nc4)cc23)c1F"
measured_value = "≥ 5.00"

[[record]]
entry_smiles = "O=C(c1c(F)ccc(NS(=O)(=O)c2ccc(-c3ccno3)s2)c1F)c1c[nH]c2ncc(Cl)cc12"
measured_value = "≥ 5.00"

[[record]]
entry_smiles = "COc1cc(Cc2c[nH]c3ncc(Cl)cc23)c(F)cc1OCc1nc2cc(S(=O)(=O)N(C)C)ccc2[nH]1"
measured_value = "≥ 5.00"

[[record]]
entry_smiles = "CC(C)(C)c1ccc(S(=O)(=O)Nc2ccc(F)c(C(=O)c3c[nH]c4ncc(Cl)cc34)c2F)cc1"
measured_value = "≥ 5.00"

[[record]]
entry_smiles = "CCCS(=O)(=O)Nc1ccc(F)c(C(=O)c2ccc3ncc(N4CCOCC4)nc3c2)c1Cl"
measured_value = "< 6.00"


Data request: Record lookup: for Serine/threonine-protein kinase B-raf (Homo sapiens, UniProt P15056), what pIC50 belongs to `COc1ncnc2[nH]cc(Cc3cnc(NCc4ccc(C(F)(F)F)nc4)c(F)c3)c12` ?
Data returned: ≥ 5.00

Data request: Record lookup: for Serine/threonine-protein kinase B-raf (Homo sapiens, UniProt P15056), what pIC50 belongs to `O=C(c1c(F)ccc(OCc2ccccc2)c1F)c1c[nH]c2ncc(Cl)cc12` ?
Data returned: ≥ 5.00

Data request: Record lookup: for Serine/threonine-protein kinase B-raf (Homo sapiens, UniProt P15056), what pIC50 belongs to `O=C(c1c(F)ccc(NS(=O)(=O)CC(F)(F)F)c1F)c1c[nH]c2ncc(Br)cc12` ?
Data returned: ≥ 5.00

Data request: Record lookup: for Serine/threonine-protein kinase B-raf (Homo sapiens, UniProt P15056), what pIC50 belongs to `O=C(c1cc(NS(=O)(=O)c2ccc(Cl)cc2)ccc1F)c1c[nH]c2ncc(Cl)cc12` ?
Data returned: ≥ 5.00

Data request: Record lookup: for Serine/threonine-protein kinase B-raf (Homo sapiens, UniProt P15056), what pIC50 belongs to `CCCS(=O)(=O)Nc1ccc(F)c(C(=O)c2c[nH]c3ncc(-c4cnc(N5CCOCC5)nc4)cc23)c1F` ?
Data returned: ≥ 5.00
